B1: F1*; the commonest letter at each place (parent)
chain: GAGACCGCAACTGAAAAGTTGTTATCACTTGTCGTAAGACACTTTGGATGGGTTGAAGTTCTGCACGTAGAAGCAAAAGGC

- Variants of: B1
- assay method text: fraction ligated after 30 min (ligated reads / total reads); higher = more ligase activity
- protocol conditions: with F1*sub RNA substrate (template-directed ligation), 42 °C
endpoint name: fraction ligated
One number for each entry.

• T43A G46C = 0.789
• G31T A57G = 0.819
• T25C G55A = 0.784
• A37C A48C = 0.792
• A24C T43G = 0.792
• G31C A56G = 0.607
• C26G T29G = 0.778
• A39C A41C = 0.792
• C33A G47C = 0.109
• T29C T43A = 0.839

Hi, could you look up fraction ligated for each item in my list?
1. T29A C33G
2. T32G A36T

Reply:
1: 0.868; 2: 0.823

Hi, could you look up fraction ligated for each item in my list?
1. C26T A39T
2. G55T A57G
3. G31T T43G
4. A39T G47T
5. G55C A56C

Reply:
0.823
0.791
0.76
0.22
0.218

Hi, could you look up fraction ligated for each item in my list?
1. T30C G34A
2. T32A C42A
3. C26A G38T
4. G51A

Reply:
0.792
0.843
0.793
0.797

Hi, could you look up fraction ligated for each item in my list?
1. A48C T49A
2. C26G T49G
3. A27T C42G
4. C28G G50T

Reply:
0.555
0.371
0.819
0.594
